- Tested on: CCRF-CEM
- test.summary: NCI-60 single-dose screen
- Format: cell-based
- condition.label: Homo sapiens, 10^–5 M, read-out: GI (%)

- compound: "O=C1C(Nc2ccc(I)cc2)=CC(c2ccc(C(F)(F)F)cc2)N1c1ccc(I)cc1 (stereo not shown)"
  value.units: "%"
  inhibition at 10 µM: 100
- compound: "COc1ccc(C2C=C(Nc3ccc(I)cc3)C(=O)N2c2ccc(I)cc2)cc1OC (stereo not shown)"
  value.units: "%"
  inhibition at 10 µM: 0
- compound: "COc1ccccc1C1C=C(Nc2ccc(I)cc2)C(=O)N1c1ccc(I)cc1 (stereo not shown)"
  value.units: "%"
  inhibition at 10 µM: 0
- compound: "COc1cc(OC)c(C2C=C(Nc3ccc(I)cc3)C(=O)N2c2ccc(I)cc2)cc1OC (stereo not shown)"
  value.units: "%"
  inhibition at 10 µM: 0
- compound: "O=C1C(Nc2ccc(I)cc2)=CC(c2ccccc2)N1c1ccc(I)cc1 (stereo not shown)"
  value.units: "%"
  inhibition at 10 µM: 4
- compound: "O=C1C(Nc2ccc(I)cc2)=CC(c2ccc3c(c2)OCO3)N1c1ccc(I)cc1 (stereo not shown)"
  value.units: "%"
  inhibition at 10 µM: 3
- compound: "N#Cc1ccc(C2C=C(Nc3ccc(I)cc3)C(=O)N2c2ccc(I)cc2)cc1 (stereo not shown)"
  value.units: "%"
  inhibition at 10 µM: 74

Provenance of the data: paper PMC12736255
